- Test description: Induction of apoptosis in human EPG85-257P cells assessed as caspase-3 activation at 30 uM after 72 hrs by flow cytometric method relative to control
- Format: cell-based
- Stated conditions: EPG85-257P cells, read-out: FC
Recorded metric: fold induction at 72 h, 30 µM

Asked: Could you share which fold induction at 72 h, 30 µM value was measured for `CC(=O)O[C@]12C[C@H](C)[C@H](OC(=O)c3cccc(C(F)(F)F)c3)[C@@H]1/C=C(/C)CC[C@H]1[C@@H](/C=C(\C)C2=O)C1(C)C` ?
Given back: 6 to 9

----------
- Tested on: ATP-dependent translocase ABCB1 (Homo sapiens)
- Sequence (P08183 whole entry): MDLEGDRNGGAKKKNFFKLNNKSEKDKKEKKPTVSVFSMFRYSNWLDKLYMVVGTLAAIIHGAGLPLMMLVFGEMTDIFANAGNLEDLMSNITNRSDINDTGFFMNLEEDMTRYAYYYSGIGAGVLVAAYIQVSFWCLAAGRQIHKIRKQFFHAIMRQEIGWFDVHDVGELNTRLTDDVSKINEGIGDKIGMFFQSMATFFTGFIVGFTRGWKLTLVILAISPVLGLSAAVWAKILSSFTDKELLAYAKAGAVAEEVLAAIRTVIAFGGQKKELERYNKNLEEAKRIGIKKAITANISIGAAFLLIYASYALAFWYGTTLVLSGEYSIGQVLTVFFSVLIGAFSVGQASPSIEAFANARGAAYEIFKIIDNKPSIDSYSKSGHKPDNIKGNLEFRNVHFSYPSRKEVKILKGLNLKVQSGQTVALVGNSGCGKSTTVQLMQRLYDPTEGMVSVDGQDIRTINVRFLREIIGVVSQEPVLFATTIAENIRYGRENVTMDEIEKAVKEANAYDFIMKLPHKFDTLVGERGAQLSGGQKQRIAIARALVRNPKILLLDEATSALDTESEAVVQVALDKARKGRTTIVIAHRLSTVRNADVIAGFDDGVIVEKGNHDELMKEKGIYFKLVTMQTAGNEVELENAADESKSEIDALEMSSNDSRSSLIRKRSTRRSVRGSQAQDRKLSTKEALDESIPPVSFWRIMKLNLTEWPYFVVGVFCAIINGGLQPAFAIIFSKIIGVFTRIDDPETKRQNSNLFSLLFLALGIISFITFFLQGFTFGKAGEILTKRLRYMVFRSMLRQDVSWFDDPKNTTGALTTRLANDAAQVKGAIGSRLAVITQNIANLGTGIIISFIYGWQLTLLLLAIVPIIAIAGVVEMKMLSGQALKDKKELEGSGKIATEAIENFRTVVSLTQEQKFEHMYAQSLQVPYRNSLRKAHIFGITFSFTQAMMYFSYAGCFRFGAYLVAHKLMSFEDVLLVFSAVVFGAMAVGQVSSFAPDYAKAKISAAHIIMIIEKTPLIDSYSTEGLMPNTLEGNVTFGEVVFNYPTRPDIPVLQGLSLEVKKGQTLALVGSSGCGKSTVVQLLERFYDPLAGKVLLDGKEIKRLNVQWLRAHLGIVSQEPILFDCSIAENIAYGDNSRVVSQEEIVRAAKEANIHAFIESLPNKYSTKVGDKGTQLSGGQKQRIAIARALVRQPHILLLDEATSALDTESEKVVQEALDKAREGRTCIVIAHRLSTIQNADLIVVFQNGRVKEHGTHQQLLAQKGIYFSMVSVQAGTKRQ
- Test description: Activation of human ABCB1 ATPase activity expressed in Sf9 insect cell membranes assessed as increase in vanadate-sensitive basal ATPase activity at 0.78 to 100 uM measured after 10 mins by colorimetric method relative to control
Recorded metric: Activity

Asked: Find Activity (ATP-dependent translocase ABCB1 (Homo sapiens)) for the entry `CC(=O)O[C@]12C[C@H](C)[C@H](O)[C@@H]1/C=C(\C)CC[C@H]1[C@@H](/C=C(\C)C2=O)C1(C)C`
Given back: 66 to 87%
